# TESTED SYSTEM: COX-1 (cyclooxygenase enzyme-1) (Ovis aries, UniProt P05979)
# Construct: gene PTGS1
# Sequence (P05979 25-600): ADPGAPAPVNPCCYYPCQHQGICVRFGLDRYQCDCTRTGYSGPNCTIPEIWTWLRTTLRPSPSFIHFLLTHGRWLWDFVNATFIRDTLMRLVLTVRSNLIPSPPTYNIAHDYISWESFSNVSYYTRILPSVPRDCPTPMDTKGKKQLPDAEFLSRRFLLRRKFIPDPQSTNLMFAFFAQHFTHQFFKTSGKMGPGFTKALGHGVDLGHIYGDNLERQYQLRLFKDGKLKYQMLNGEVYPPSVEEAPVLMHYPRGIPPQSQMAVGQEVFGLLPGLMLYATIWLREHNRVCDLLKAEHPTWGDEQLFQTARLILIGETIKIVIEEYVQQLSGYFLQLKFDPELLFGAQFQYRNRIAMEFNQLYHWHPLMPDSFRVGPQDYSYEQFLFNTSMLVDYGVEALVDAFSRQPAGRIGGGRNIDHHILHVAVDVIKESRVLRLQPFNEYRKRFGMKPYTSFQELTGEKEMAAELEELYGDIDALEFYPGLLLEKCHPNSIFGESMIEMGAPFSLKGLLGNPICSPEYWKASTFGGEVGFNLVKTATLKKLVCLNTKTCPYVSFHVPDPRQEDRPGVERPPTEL
# PROTOCOL TEXT: biochemical
# Set-up: In vitro cyclooxygenase (COX-1 and COX-2) enzyme inhibition assay, percent inhibition
# CONDITION DESCRIPTION: read-out: % inhibition
METRIC NAME: inhibition at 25 µg/mL (%)
Report as a plain number; the unit % is understood.

C[C@@H](O)[C@H](N)C(=O)O [Threonine]
19.4

Query: For the compound shown here, N[C@@H](CO)C(=O)O [Serine] , give the reported inhibition at 25 µg/mL.
Result: 6.25

Query: Follow-up entry: O=C(O)C(O)Cc1ccccc1 (stereo not drawn) [3-Phenyllactic acid]
Result: 4.42

Query: Follow-up entry: N[C@@H](Cc1c[nH]c2ccccc12)C(=O)O [Tryptophan]
Result: 37.6

Query: Follow-up entry: NCC(=O)O [Glycine]
Result: 12.9

Query: Follow-up entry: CC(C)C(=O)C(=O)O [α-Ketoisovaleric acid]
Result: 17.1
